Data provenance is the supplement of paper PMC12764529.

- method.notes: folding stability dG unfold from trypsin proteolysis; higher = more stable
reported.property: folding stability dG unfold (kcal/mol)

• SAGGSAGGSAGGENPEYKPKLLVLVKLEVNGEYYYREFETLEELENYNDPNLKVVAVADLSAGGSAGGSAGG [r7_793_TrMRF] = 1.27
• SAGGAVTSVSPGNGTTTVTVPISVPGSPVTLNIPTPDATLTPDPSGTVTVTLPPNGTYSITITGPRSDSAGG [r19_227_JUSTAS] = -0.688
• SAGGNWIWRIKFPGRSIHFNWEQGNIEIWPPDGEEKTIPLPPGEPLEEFADEFAEKNGFDKVEIEPVPSAGG [r13_852_TrROS] = 2.08
• SAGGSAGGSAGMKTLKTTTKVFPGTGVIVTESLVEFPNGSLKKLTKVTYVKNPNPSTTLASAGGSAGGSAGG [r17_41_JUSTAS] = 0.474

----------
- method.notes: folding stability dG unfold (combined trypsin and chymotrypsin); higher = more stable
Overview of reported folding stability dG unfold across a group of sequences:
reported.property: folding stability dG unfold (kcal/mol)

• SAGMLRELLDNPDVKRLEIVIFIPEEDLSEEDRERARERARELAERLRELLRERGYDVEIEVRIVRLPPSAG [r5_408_TrROS_Hall] = 3.39
• SGSPDELEVVESEETVNIPPEELEAKYGIKVPENSTVVIKTKTLKPPSGNDIVEPEIKIYDPVTNEWIELSA [r9_349_JUSTAS] = -0.47
• SAGGSAGGMKIEIFQNDDGIYVRIKLKPPNGPPRTMVFPFTANQIKDALKQFPNYKIEDIEVYRSAGGSAGG [r6_879_TrROS] = 1.9
• SAGGSAGGSAGMKVKTDPSSGPTVNKAYLENGTLILTTVTYDPSNGTTSTTTTVVPLSLLSAGGSAGGSAGG [r17_287_JUSTAS] = 0.823

----------
- method.notes: folding stability dG unfold from trypsin proteolysis; higher = more stable
Overview of reported folding stability dG unfold across a group of sequences:
reported.property: folding stability dG unfold (kcal/mol)

• SAGGGADVISAYDPETVEELSKLPWVTSVTYDPETGRYDIRFERPDGQYNYVVDNVTKEVLEVSPVDSAGGS [r8_251_TrMRF] = 1.03
• SAKKIILIKAESEEELKKAIEEAKKLAEEGKKVEIIIETPKGLILIEIDVKTKKIKIKNLETGEEIELESAG [r14_423_TrROS_Hall] = 1.49
• SAGGSAGGSMLVLKVEVKIEVEEREVIGPDGKIKKEKKIKIEIKIELFELPPLTEEELKKLKESAGGSAGGS [r12_1060_TrROS_Hall] = 2.73
• SAGGSDVKTYTFVGIDPETGELVETTFRVTPLVPPVPVSVSVSLTLDVDPDGNLHLSLSVSVELGGSAGGSA [r2_326_TrMRF] = 3.21
• SAGGPMPPGQKRTVTIDLEYNPENGGYRVRAYSPGGKPIEEFPFPRDNLEEFAEEFANKGVDYVEIEPSAGG [r13_765_TrROS] = -0.217
• SGVQLEWKYDPEDNKREIKISIFFPADDPEKKKQFAKVIAKEIENMFQEQGWKPKKIDIEVMRMPPGQPLSA [r9_117_TrROS] = 0.889
• SAGGSAMIEEKLIEIPPIPVPYPDGSVQKVPVLVEETVELKPFIDPNTDKTSTAKTVTKRKVIFPSSAGGSA [r15_884_JUSTAS] = -0.255
• SAGGSMVKLKVTSVSREGNYLTVTAELGNLIVEIRFDEGTDRFEVKVSEKPLVLGEEEIEELAKASSAGGSA [r2_482_TrMRF] = 1.52
• SAGGSAGGSAGVRDPDNGEPMPPGDWVIRHRDNEKPHHFLIPPNNAEEFAEDNGIEIHKVSAGGSAGGSAGG [r17_109_TrROS] = 1.42
• SQTIRLELKNPDGRKIRIEIPVQRNPGNGYYYVSVKIEYYDPNGKPKERPITAPFNSPEDAEDQAREALRSA [r9_337_TrROS] = 1.63
• SAAEIDEDGTIRIVLSEEAVKNMSEEELKALAEELAKLLPPGAKVEIKIVKPKPVKEEKKLYDKDGKEVSAG [r14_312_TrROS_Hall] = 1.19
• SKKTITITIEDKETGLKVEITINEDGTITIKVYDKDGKLVAEVKAKIKLVKDKDGKIRLVIEEIEIKVKPSA [r9_434_TrROS_Hall] = 3.87
• SAGGSAGGSKLTIMVKMDSAEDAEEEARSLLKELGIKPGMKEVKVSMFPRGNEYYAHVEIKFKSAGGSAGGS [r12_7_TrROS] = 0.672
• SAGGSAGGSKKRTILIQFPNGSPEEAVDNIKNWLRALGNEPIPLEDVKIQWYPGNPGYFQIEISAGGSAGGS [r12_122_TrROS] = 1.81
